- Tested on: LXRa homodimer (NR concentration 270 nM)
- experiment notes: PBM binding z-score (relative to random genomic background probes); higher = stronger binding; sequences stand for … in GC…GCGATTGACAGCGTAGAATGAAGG
Respond with satisfied for PBM binding z-score values of -0.09 and above, not satisfied for values below.

Some solved cases for reference:
sequence_input=CTCGTAAGGTCGGTTGAGGTGAGTATACGGATAA group_label="not satisfied"
sequence_input=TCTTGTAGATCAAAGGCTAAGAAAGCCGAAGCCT group_label="not satisfied"
sequence_input=CGAACTAGGTCAATGACAGTGAATCTCCGCACGC group_label=satisfied
sequence_input=AGTCACAGTTCATCTAGGTAACGTAAGATATGCT group_label=satisfied
sequence_input=GCTTACGGGTCAAAGCTTATAGCATGAATAGAAT group_label="not satisfied"
sequence_input=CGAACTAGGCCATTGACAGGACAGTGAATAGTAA group_label=satisfied

Query: Determine whether this sequence has PBM binding z-score no lower than -0.09: CTCGAAAGGTCGTGCTCAGGTGAGTTTACCAAAC
Reply: satisfied

Query: Dear colleague, could you confirm whether TCTCGTAGATCAGCAGGTTAAGAAAGCTGGCCAA has PBM binding z-score at or above -0.09?
Reply: not satisfied

Query: Is the recorded value of PBM binding z-score equal to or greater than -0.09 for this sequence? AGTCAAAGTTCACTAGGTAACATAAGATTCAGCT
Reply: satisfied

Query: Record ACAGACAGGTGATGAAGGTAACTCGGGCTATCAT ; criterion: PBM binding z-score no lower than -0.09. Met?
Reply: not satisfied

Query: State whether the measured PBM binding z-score reaches -0.09, counting equality as reaching it, for CCGTACGGGTCACTGACAGGTTATAGCATTTGGA
Reply: satisfied

###

- Tested on: VDR:RXRa (NR concentration 270 nM, RXRa partner concentration 90 nM)
- experiment notes: PBM binding z-score (relative to random genomic background probes); higher = stronger binding; sequences stand for … in GC…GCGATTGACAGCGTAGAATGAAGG
The entries below come with measured PBM binding z-score values attached.

Here is how some sequences turned out for PBM binding z-score.
sequence_input=GTAACGAGGGCAAGTTGATAGCAGAGTTTGATGG reported_measurement=1.09
sequence_input=TCTTGTAGTTCAAGCAGGTTAAGAAAGCCTGAGT reported_measurement=3.32
sequence_input=ACTAGCAGGCCCAGTTTGGGTCACTCAAACAAAG reported_measurement=-0.198

Now look at this one.
Query: Looking for the measured PBM binding z-score of CCTCCAAGGTCAGAGAGGTCAGTGAATGCCGAGT , can you help?
Reply: 7.22

###

- Tested on: LXRb:RXRa (NR concentration 270 nM, RXRa partner concentration 90 nM)
- experiment notes: PBM binding z-score (relative to random genomic background probes); higher = stronger binding; sequences stand for … in GC…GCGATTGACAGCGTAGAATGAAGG
observable: PBM binding z-score
A bare number is all that is needed in reply.

Study these solved cases before continuing.
sequence_input=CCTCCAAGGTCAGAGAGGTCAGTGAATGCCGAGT observable="PBM binding z-score" reported_measurement=4.43
sequence_input=CCTGCTAGGTCATTGGTCAGCTAAAGCAGCTCGC observable="PBM binding z-score" reported_measurement=2.13
sequence_input=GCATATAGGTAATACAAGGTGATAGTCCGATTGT observable="PBM binding z-score" reported_measurement=-0.116
sequence_input=GATACAGGGTCCGCTAGAGGCCAGAGTATGGAAA observable="PBM binding z-score" reported_measurement=-1.11
sequence_input=CGAACTAGGTCAGGGACAGTGAATCTCCGCACGC observable="PBM binding z-score" reported_measurement=0.458
sequence_input=CAAACTACGTCACAGAGGTCAAAGTCCGTGCGTA observable="PBM binding z-score" reported_measurement=5.02

Turning now to a further sequence:
Query: Dear colleague, I am looking for the recorded PBM binding z-score of the following sequence: CCGACTGGGGCAACGTTACCATAACGCACAGCCA
Reply: -0.465

###

- Tested on: VDR homodimer (NR concentration 270 nM)
- experiment notes: PBM binding z-score (relative to random genomic background probes); higher = stronger binding; sequences stand for … in GC…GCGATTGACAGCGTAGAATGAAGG
Label yes (1) when PBM binding z-score is at or above 1; otherwise label no (0).

Completed entries (count: 5):
sequence_input=TCTTGTAGATAAATAGAGGTTAAGAAAGTGCGCT group_label="no (0)"
sequence_input=TCTAGTTCGTCAAAGGTCACACACTCGAAATGCG group_label="yes (1)"
sequence_input=CCGGCTAGGTCATGGTCAGCTAATCTACAGTATG group_label="no (0)"
sequence_input=TCGAGTAGGTTAGACGGGGCATTCAGCCAACATA group_label="no (0)"
sequence_input=CCTATTAGTTGATCATAAGGGCAACCGAAGCTCG group_label="yes (1)"

Query: Answer whether PBM binding z-score of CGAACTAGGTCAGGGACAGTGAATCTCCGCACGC is greater than or equal to 1.
Reply: no (0)

###

As shown below, each of these sequences has a reported PBM binding z-score value.
- Tested on: PPARg:RXRa DBDmut IVT, anti-RXR (DBD mutation: RXRa K156A/R161A, NR concentration 270 nM, RXRa partner concentration 90 nM)
- experiment notes: PBM binding z-score (relative to random genomic background probes); higher = stronger binding; sequences stand for … in GC…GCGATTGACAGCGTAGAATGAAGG
API doc: respond with a numeric literal and nothing else, no unit.

sequence_input=TCTTGTAGATCAAGCAGGTTAAGGAAGCCTGAGT observable="PBM binding z-score" reported_measurement=1.51
sequence_input=CCTGCTGGGCCATTCAGAGGTCATTGATCATATG observable="PBM binding z-score" reported_measurement=0.632
sequence_input=TCGAGTAGGTTACCAATGGGGGATTCAGCTTTCT observable="PBM binding z-score" reported_measurement=3.04
sequence_input=CAAACTAGGTCAAGGACAAAGTCGGTTTGTGCCA observable="PBM binding z-score" reported_measurement=8.57
sequence_input=CCTAGCAGGCCAATCAGGGTCACTCAAGGCTTGA observable="PBM binding z-score" reported_measurement=1.3
sequence_input=ACTAGCATGCCAAGTTTGGGTCACTCAAACAAAG observable="PBM binding z-score" reported_measurement=-0.0858
sequence_input=ATCTCGAGGTAAAGTTCAGTGAAAGATCGATAGA observable="PBM binding z-score" reported_measurement=0.243
sequence_input=ATCTCTAGGTAACCCAGTTCAGTGAATGCCGAAC observable="PBM binding z-score" reported_measurement=4.06

Query: # lookup: PBM binding z-score of CCGATTGGGGCAAGGTTACCATAACGCACAGCCA
Reply: 1.32

Query: Consider the sequence shown here: GCTAGTTGGTCAGTAAAAGGTCACACATCGGTCG What is its recorded PBM binding z-score?
Reply: 1.75

###

Here the recorded PBM binding z-score is given for each entry.
- Test system: PPARg:RXRa IVT, anti-PPARg (NR concentration 270 nM, RXRa partner concentration 90 nM)
- experiment notes: PBM binding z-score (relative to random genomic background probes); higher = stronger binding; sequences stand for … in GC…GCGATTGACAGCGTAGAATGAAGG
Provide a numeric answer; units are not to be included.

Take a look at these entries with their results.
sequence_input=ATCTCAAGGTAAGACTCAGTTCAGTGAAGAACGC observable="PBM binding z-score" reported_measurement=0.426
sequence_input=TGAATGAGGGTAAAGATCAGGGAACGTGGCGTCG observable="PBM binding z-score" reported_measurement=3.04
sequence_input=TCATATAGGTAAAAGGTGACAGTCGGTGTGGTAA observable="PBM binding z-score" reported_measurement=5.54
sequence_input=ATATGTAGGTAATCGGGTCATTCAGTTTGCGCAT observable="PBM binding z-score" reported_measurement=7.38

Query: Any idea what PBM binding z-score was measured for CCTTGCGGGTCAAGGTTATAGCACGGGTGGTACG ?
Reply: 5.26

Query: Using the record for ATCGAAATGTCGAGGTGAGTATAGAGAAAGGGAA , report its PBM binding z-score.
Reply: 0.414

Query: Form field: reported PBM binding z-score of CATACTGGGCCAAGGTCATTGATCAGTCAAAGCA
Reply: 4.49

Query: Which PBM binding z-score is reported for this sequence? GCTTGTAGATCAAGGTTAAAAAAGACTAAGCTAA
Reply: 1.23

Query: Report PBM binding z-score for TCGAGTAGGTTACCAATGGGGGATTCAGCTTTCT please.
Reply: 3.87

Query: // returns reported PBM binding z-score for input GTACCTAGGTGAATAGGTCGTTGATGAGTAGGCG
Reply: 3.55

Query: Could you tell me which PBM binding z-score is on file for ATCTGTAGGTAACCAAGTTCAGTGAATGCCGAAC ?
Reply: 2.55

Query: // lookup PBM binding z-score for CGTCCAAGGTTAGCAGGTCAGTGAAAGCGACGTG
Reply: 2.5

Query: Data request, read-out PBM binding z-score, for CCTCGGAGGACAACAGCAGGTCAGAGCTGCCAGA
Reply: -0.0313

Query: What PBM binding z-score value was documented for this sequence, CCTACTGGGCCAAGGTCATTGATCAGTCAAAGCA ?
Reply: 4.5

Query: State the recorded PBM binding z-score for this entry: CATACAGGGTCACCTAGGCCAGAGTAGGGACGGC
Reply: 4.32

Query: Entry GGAACGAGGGCAAAGTTGATAGAATCTGTCGACG has what PBM binding z-score?
Reply: 4.36

Query: Can you look up the measured PBM binding z-score of TCGAGTGGGTTACCAATGGGGCATTCAGCTTTCT for me?
Reply: 1.77

Query: What value of measured PBM binding z-score is listed for CAGCCTAGGTCAGGGCGAGTATAGGAGGAACGTT ?
Reply: 1.54

Query: Look up PBM binding z-score for this sequence: AATACAGGGTCACTAGGCCAGAGAAGGTACGAAT
Reply: 5.68

Query: Can you look up the measured PBM binding z-score of CCTGCTAGGTCAATGGTCAGATAAAGCAGCTCGC for me?
Reply: 4

Query: Form field: reported PBM binding z-score of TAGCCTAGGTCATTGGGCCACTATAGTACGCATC
Reply: 4.5

Query: Bench note: what PBM binding z-score did TCATATAGGTAAAGGTGAAACTCGAACGATATGA show?
Reply: 4.59

Query: Can you share its PBM binding z-score? I mean this sequence: TCTTGTAGTTCAACAGGAGGTTAAGAAAGATCGA
Reply: 0.804

// provenance: the supplement of paper PMC6555819
